- TEST TARGET: FAD-linked sulfhydryl oxidase ALR (Homo sapiens)
- Sequence (P55789 whole entry): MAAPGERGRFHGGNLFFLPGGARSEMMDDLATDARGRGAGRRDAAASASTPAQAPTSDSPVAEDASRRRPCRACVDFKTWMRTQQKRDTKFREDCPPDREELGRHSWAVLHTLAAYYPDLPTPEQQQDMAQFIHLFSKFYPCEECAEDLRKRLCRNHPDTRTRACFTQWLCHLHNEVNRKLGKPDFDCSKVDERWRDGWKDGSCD
- ASSAY: ALR-catalysed DTT oxidation blockers – biochemical, H2O2 detection, luminescence, cherry-pick, dose response (AID 493248)
The source made the active and inactive calls. Cut-off read from the data, not from the text of the source: actives have a measured AC50 and inactives only a lower limit.
OBSERVABLE: AC50

Illustrative cases are given below, each with its answer.
MOLECULE | RESULT
CCN(CC)c1ccc(NC(=O)C2CC3CCC2C3)cc1 (stereo unspecified) | 0.431 µM (active)
Cc1ccc(-c2nc(-c3cccnc3)sc2CC(=O)O)cc1 | 3.45 µM (active)
C/C(=N\Nc1ccc(Cl)c(C(=O)O)c1)c1cc2ccccc2o1 | 0.138 µM (active)

In: Using the record for `O=C(NCc1ccco1)c1ccccc1NS(=O)(=O)c1ccc(Cl)s1` , state its measured AC50.
Out: 2.1 µM (active)

In: Using the record for `Cc1cc(C)c2c(-n3cccc3)c(C(=O)NNS(=O)(=O)c3ccc(Br)cc3)sc2n1` , state its measured AC50.
Out: 74.4 µM (active)

In: Using the record for `Cn1c(-c2ccc(F)cc2)cnc1NCc1ccc(F)cc1` , state its measured AC50.
Out: 4.7 µM (active)
